Values were extracted from patent US11753403B2.

Target or system: Human eIF4E (aa 28-217) / biotin labeled 4G2 peptide (Homo sapiens (Human), UniProt P06730)
Sequence (P06730 28-217): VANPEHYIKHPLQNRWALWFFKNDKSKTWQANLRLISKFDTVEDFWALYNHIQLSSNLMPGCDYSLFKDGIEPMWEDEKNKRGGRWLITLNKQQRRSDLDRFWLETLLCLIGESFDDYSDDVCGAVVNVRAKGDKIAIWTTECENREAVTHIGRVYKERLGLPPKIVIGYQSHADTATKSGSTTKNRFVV
Run description: Human eIF4E/4G2 binding assay (TR-FRET)
Assay context: Human eIF4E/4G2 TR-FRET binding assay; head says IC50, legend says EC50
pIC50: −log10 of the molar value.
Reported pIC50 values follow for various molecules

Worked cases, answers included:
O=C(O)c1sc(NCC(Cc2ccccc2)C(=O)O)nc1-c1ccc(Cl)c(Cl)c1 (stereo not drawn): < 5.00
CC(C)Cc1sc(N(CC(=O)O)Cc2ccccc2)nc1-c1ccc(Cl)c(Cl)c1: ≥ 6.00
O=C(O)C(CNc1nc(-c2ccc(Cl)c(Cl)c2)c(C2CC2)s1)Cc1cccc(O)c1 (stereo not drawn): 5.00 to 6.00
COc1ccc(-c2nc(N(CCC(=O)O)Cc3ccccc3)sc2CC(C)C)cc1Cl: 5.00 to 6.00
CC(C)Cc1sc(N(CCC(=O)O)Cc2cccc(F)c2)nc1-c1ccc(Cl)c(Cl)c1: ≥ 6.00
CC(C)Cc1sc(N(CCC(N)=O)Cc2ccccc2)nc1-c1ccc(Cl)c(Cl)c1: < 5.00
CNC(=O)N1CCN(c2nc(-c3ccc(Cl)c(Cl)c3)c(CC(C)C)s2)CC1C(=O)O (stereo not drawn): 5.00 to 6.00
CC(C)Cc1sc(N(CCNC(=N)N)Cc2ccccc2)nc1-c1ccc(Cl)c(Cl)c1: 5.00 to 6.00
C=C(C)c1sc(NCC(Cc2ccccc2)C(=O)O)nc1-c1ccc(Cl)c(Cl)c1 (stereo not drawn): 5.00 to 6.00
CC(C)c1sc(N(CCC(=O)O)Cc2ccccc2)nc1-c1ccc(F)c(F)c1: 5.00 to 6.00

What pIC50 value was documented for this molecule, CC(C)Cc1sc(NCC(Cc2cccc(C(N)=O)c2)C(=O)O)nc1-c1ccc(Cl)c(Cl)c1 (stereo not drawn) ? 5.00 to 6.00

Can you look up the measured pIC50 of Cc1c(-c2ccccc2)sc(C(=O)O)c1Nc1nc(-c2ccc(Cl)c(Cl)c2)c(CC(C)C)s1 for me? ≥ 6.00

* * *

Target or system: Human eIF4E (aa 28-217) / biotin labeled 4G2 peptide (Homo sapiens (Human), UniProt P06730)
Run description: Human eIF4E/4G2 binding assay (TR-FRET)
Assay context: Human eIF4E/4G2 TR-FRET binding assay; head says IC50, legend says EC50
Measured parameter: IC50

CC(C)Cc1sc(N(CCC(=O)NS(C)(=O)=O)Cc2ccccc2)nc1-c1ccc(Cl)c(Cl)c1 [I-97]: 1000 to 10000 nM
Cc1ncccc1CC(CNc1nc(-c2ccc(Cl)c(Cl)c2)c(CC(C)C)s1)C(=O)O (stereo not drawn) [I-156]: 1000 to 10000 nM

Now examine the next entry.
Need IC50, item CC(C)c1sc(Nc2cc(-c3ccccc3)sc2C(=O)O)nc1-c1ccc(Cl)c(C(F)(F)F)c1 [I-279] ≤ 1000 nM

* * *

Target or system: Human eIF4E (aa 28-217) / biotin labeled 4G2 peptide (Homo sapiens (Human))
Run description: Human eIF4E/4G2 binding assay (TR-FRET)
Assay context: Human eIF4E/4G2 TR-FRET binding assay; head says IC50, legend says EC50
pIC50: −log10 of the molar value.
Measured parameter: pIC50

See these solved cases before continuing.
CC(C)Cc1sc(N(CCC(=O)O)Cc2ccccc2)nc1-c1ccncc1 [I-84]: < 5.00
CC(C)c1sc(NCC(Cc2c[nH]c3ccccc23)C(=O)O)nc1-c1ccc(Cl)c(Cl)c1 (centres unmarked) [I-9]: 5.00 to 6.00
CSCc1sc(N(CCC(=O)O)Cc2ccccc2)nc1-c1ccc(Cl)c(Cl)c1 [I-121]: 5.00 to 6.00

Provide the documented pIC50 with Human eIF4E (aa 28-217) / biotin labeled 4G2 peptide (Homo sapiens (Human)) as the system for CC(C)Cc1sc(NCC(C(=O)O)N(C)Cc2ccccc2)nc1-c1ccc(Cl)c(Cl)c1 (centres unmarked) [I-114] 5.00 to 6.00

Reported pIC50 for Human eIF4E (aa 28-217) / biotin labeled 4G2 peptide (Homo sapiens (Human)), given O=C(O)C(CNc1nc(-c2ccc(Cl)c(Cl)c2)c(C2CC2)s1)Cc1ccc2[nH]ccc2c1 (centres unmarked) [I-17] ? ≥ 6.00

* * *

Target or system: Human eIF4E (aa 28-217) / biotin labeled 4G2 peptide (Homo sapiens (Human), UniProt P06730)
Run description: Human eIF4E/4G2 binding assay (TR-FRET)
Assay context: Human eIF4E/4G2 TR-FRET binding assay; head says IC50, legend says EC50
pIC50: −log10 of the molar value.
Measured parameter: pIC50

Sample CC(C)Cc1sc(N(CCC(=O)O)CCc2cccc(Cl)c2)nc1-c1ccc(Cl)c(Cl)c1 — what was its pIC50? ≥ 6.00

I am curious: what pIC50 value has been reported for COc1cccc(-c2nc(NCC(Cc3ccccc3)C(=O)O)sc2C(C)C)c1 (stereo not drawn) ? < 5.00

Query (compound): CC(C)Cc1sc(N(CCc2ccccc2)CC(=O)O)nc1-c1ccc(Cl)c(Cl)c1 ; field requested: pIC50 ≥ 6.00

Using the record for CN(C)Cc1sc(N(CCC(=O)O)Cc2ccccc2)nc1-c1ccc(Cl)c(Cl)c1 , report its pIC50. < 5.00

Please look up its pIC50: COC(=O)c1ccc(Nc2nc(-c3ccc(Cl)c(Cl)c3)c(CC(C)C)s2)n1C < 5.00

* * *

Target or system: Human eIF4E (aa 28-217) / biotin labeled 4G2 peptide (Homo sapiens (Human), UniProt P06730)
Run description: Human eIF4E/4G2 binding assay (TR-FRET)
Assay context: Human eIF4E/4G2 TR-FRET binding assay; head says IC50, legend says EC50
pIC50: −log10 of the molar value.
Measured parameter: pIC50

CC(C)Cc1sc(NCC(Cc2ccc(O)nc2)C(=O)O)nc1-c1ccc(Cl)c(Cl)c1 (stereo not shown): 5.00 to 6.00
CC(C)Cc1sc(N(CCC(=O)O)Cc2ccc(O)cc2)nc1-c1ccc(Cl)c(Cl)c1: 5.00 to 6.00
CC(C)Cc1sc(N(CCC(=O)O)Cc2cccc3c2OCO3)nc1-c1ccc(Cl)c(Cl)c1: ≥ 6.00
CC(C)c1sc(NCC(Cc2cccc3[nH]ccc23)C(=O)O)nc1-c1ccc(Cl)cc1 (stereo not shown): 5.00 to 6.00
CC(C)c1sc(NCC(Cc2ccc3[nH]ccc3c2)C(=O)O)nc1-c1ccc(Cl)c(Cl)c1 (stereo not shown): 5.00 to 6.00

Sample CSc1ccc(CC(CNc2nc(-c3ccc(Cl)c(Cl)c3)c(CC(C)C)s2)C(=O)O)cc1 (stereo not shown) — what was its pIC50? ≥ 6.00

Entry under review: CC(C)Cc1sc(N(CCC(=O)O)Cc2ccc[nH]2)nc1-c1ccc(Cl)c(Cl)c1 . Reported pIC50? 5.00 to 6.00

# pIC50 lookup, item CC(C)c1sc(Nc2ncc(-c3cccc(F)c3)cc2C(=O)O)nc1-c1ccc(Cl)c(Cl)c1 ≥ 6.00

Which pIC50 value belongs to CC(C)Cc1sc(Nc2cccc(C(F)(F)F)c2C(=O)O)nc1-c1ccc(Cl)c(Cl)c1 ? ≥ 6.00

// pIC50 lookup, key: Cc1cc(CC(CNc2nc(-c3ccc(Cl)c(Cl)c3)c(CC(C)C)s2)C(=O)O)ccn1 (stereo not shown) 5.00 to 6.00

Consider the molecule CSc1ccc(-c2nc(N(CCC(=O)O)Cc3ccccc3)sc2CC(C)C)cc1 and give its measured pIC50. 5.00 to 6.00

Report pIC50 for CC(C)Cc1sc(Nc2cc(C(=O)O)ccc2-c2ccccc2)nc1-c1ccc(Cl)c(Cl)c1 please. 5.00 to 6.00

# pIC50 lookup, item CC(C)Cc1sc(N(CCC(=O)O)Cc2cccc3[nH]ccc23)nc1-c1ccc(Cl)c(Cl)c1 5.00 to 6.00

pIC50 lookup needed for CCOC(=O)c1sc(NCC(Cc2ccccc2)C(=O)O)nc1-c1ccc(Cl)c(Cl)c1 (stereo not shown) , thanks. 5.00 to 6.00

Need pIC50, item CC(C)Cc1sc(Nc2ccsc2C(=O)NCCN)nc1-c1ccc(Cl)c(Cl)c1 5.00 to 6.00

# input molecule: CC(C)c1sc(NCC(Cc2cccc3[nH]ccc23)C(=O)O)nc1-c1ccc(Cl)c(Cl)c1 (stereo not shown) ; wanted: its pIC50 5.00 to 6.00

* * *

Measured pIC50 accompanies every entry in the list below.
Target or system: Human eIF4E (aa 28-217) / biotin labeled 4G2 peptide (Homo sapiens (Human), UniProt P06730)
Run description: Human eIF4E/4G2 binding assay (TR-FRET)
Assay context: Human eIF4E/4G2 TR-FRET binding assay; head says IC50, legend says EC50
pIC50: −log10 of the molar value.

COc1cccc(-c2nc(NCC(Cc3cccc(O)c3)C(=O)O)sc2C(C)C)c1 (centres unmarked): < 5.00
CC(C)Cc1sc(Nc2ncc(-c3ccc4ccccc4c3)cc2C(=O)O)nc1-c1ccc(Cl)c(Cl)c1: ≥ 6.00
CC(C)Cc1sc(N(CCC(=O)O)Cc2ccccc2)nc1-c1cc(Cl)c(Cl)c(Cl)c1: ≥ 6.00
CC(C)c1sc(NCC(Cc2cccc3c2OCO3)C(=O)O)nc1-c1ccc(Cl)c(Cl)c1 (centres unmarked): ≥ 6.00
CC(C)Cc1sc(Nc2ncc(-c3cccs3)cc2C(=O)O)nc1-c1ccc(OCC2CC2)c(Cl)c1: ≥ 6.00

Record request: pIC50 value, item CC(C)Cc1sc(NCC(Cc2cccc3cc[nH]c23)C(=O)O)nc1-c1ccc(Cl)c(Cl)c1 (centres unmarked) 5.00 to 6.00

Consider the molecule shown here: CC(C)Cc1sc(N(CCC(=O)O)Cc2ccccc2)nc1-c1ccc(O)cc1 What is its recorded pIC50? 5.00 to 6.00

Give its pIC50 value. Item: CC(C)Cc1sc(N(CCCN(C)C)CCC(=O)O)nc1-c1ccc(Cl)c(Cl)c1 < 5.00
